# target under test: Muscarinic acetylcholine receptor M1 (Homo sapiens)
# experiment: Cholinergic receptor muscarinic 1 (CHRM1) small molecule antagonists, cell-based qHTS assay (AID 1963588); note: nearly all actives have a fitted effect of over 40% in size
# assay conditions: CHRM1-CHO antagonist mode, calcium flux fluorescence; series mostly up to 61.5 µM
Inconclusive results are not listed. Calls of active or inactive are those of the source. Calls come from the whole dose curve.
Outcomes: yes for active, no for inactive

molecule	label class
CCN(CC)CCOC(=O)C(C)(c1ccccc1)c1ccccc1	yes
OC(c1ccc(Cl)cc1)(c1ccc(Cl)cc1)c1cccnc1	yes
CC(=O)c1cc(C(C)(C)C)cc2c1CCC2(C)C	no
CC(Cc1ccccc1)N(C)Cc1ccco1 (stereo unspecified)	no
CCO[C@H]1O[C@@H]2OC3(C)CC[C@H]4[C@H](C)CC[C@@H]([C@H]1C)[C@@]24OO3	no
CNC(=O)O/N=C(\C)SC	no

====

# experiment: G protein-coupled receptor (GPCR) small molecule agonists, calcium flux assay: HEK293 wild type cell line counter screen (AID 1920065); note: % is set by controls: 0 for no effect and ±100 for the full control effect
# assay conditions: HEK293 WT calcium flux, fluorescence, agonist mode; series mostly up to 57.6 µM
The source made the active and inactive calls. Calls come from the whole dose curve.

compound	activation
O=CNC(N1CCN(C(NC=O)C(Cl)(Cl)Cl)CC1)C(Cl)(Cl)Cl (configuration not stated)	inactive
Cc1cccc(C)c1NC1=NCCCS1	inactive
COC(=O)c1cc(Oc2ccc(Cl)cc2Cl)ccc1[N+](=O)[O-]	inactive
CC(C)[C@]12CC(=O)[C@H](C)[C@H]1C2	inactive
CCCCCCCCCCCCN=C(N)N	0.159% [at 2.04 µM] (inactive)
CCc1ccc(C2CCNCC2)cc1	inactive
O=[N+]([O-])c1ccc(Oc2ccc(C(F)(F)F)cc2[N+](=O)[O-])cc1	inactive
CCC#N	inactive
COC(=O)N(OC)c1ccccc1COc1ccn(-c2ccc(Cl)cc2)n1	inactive
[CH3][Hg][Cl]	inactive
Nc1ccc([N+](=O)[O-])cc1Cl	inactive
Clc1cccc2ccccc12	inactive
C=CCC1([C@H](C)CCC)C(=O)NC(=O)NC1=O	inactive
CCCCCCC(=O)CCCCCC/C=C/C[C@@H](O)[C@H](O)[C@@](N)(CO)C(=O)O	0.714% [at 11.8 µM] (inactive)
O=C1c2ccccc2C(=O)C1C(=O)C(c1ccccc1)c1ccccc1	inactive
CC[C@@H](CO)NC(=O)[C@@H]1C=C2c3cccc4c3c(cn4C)C[C@H]2N(C)C1	inactive
Clc1ccccc1N1CCNCC1	inactive
O=C(CCl)C(Cl)Cl	inactive
CNNC	inactive
C[CH2][Hg][N]1C(=O)C2C(C1=O)C1(Cl)C(Cl)=C(Cl)C2(Cl)C1(Cl)Cl (configuration not stated)	-0.0279% [at 11.8 µM] (inactive)
O=C(N/N=C/c1ccc([N+](=O)[O-])o1)c1cc([N+](=O)[O-])cc([N+](=O)[O-])c1O	inactive
CCOP(=S)(OCC)Oc1ccc(S(C)=O)cc1 (configuration not stated)	inactive
CC(C)C(Nc1ccc(C(F)(F)F)cc1Cl)C(=O)OC(C#N)c1cccc(Oc2ccccc2)c1 (configuration not stated)	inactive
CC[C@@H](CO)NC(=O)[C@@H]1C=C2c3cccc4[nH]cc(c34)C[C@H]2N(C)C1	inactive
CN1CCc2cc3c(cc2C1O)OCO3 (configuration not stated)	inactive
COC(=O)C(c1ccccc1)C1CCCCN1 (configuration not stated)	inactive
Cc1cccc(Cc2cnc[nH]2)c1C	inactive
CC(=O)[O-].[Tl+]	inactive
FC(F)(F)c1cccc(C2=CCN(CCc3ccc4ccccc4c3)CC2)c1	inactive
CC(O)C#N (configuration not stated)	inactive
CC(C)[C@H](C(=O)OC(C#N)c1cccc(Oc2ccccc2)c1)c1ccc(OC(F)F)cc1 (some centres not stated)	inactive
COP(=O)(OC)Oc1ccc([N+](=O)[O-])cc1	inactive
Oc1ccc([C@H]2CNCc3c2ccc(O)c3O)cc1O	inactive
O=C(Cl)C(Cl)(Cl)Cl	inactive
CN1CCc2cc(Cl)c(O)cc2[C@H]2c3ccccc3CC[C@@H]21	inactive
N#CSCc1ccccc1	inactive
COC(=O)c1ccccc1S(=O)(=O)NC(=O)Nc1nc(C)nc(OC)n1	inactive
Clc1ccc(C(Cl)(Cl)Cl)cc1Cl	inactive
c1ccc(C2CC2)c(OCC2=NCCN2)c1	inactive
CCC1(CCC(C)C)C(=O)NC(=O)NC1=O	inactive
Cc1cc(C(C)(C)c2cc(C)c(O)c(C)c2)cc(C)c1O	inactive
CCN1CCCC1CNC(=O)C(O)(c1ccccc1)c1ccccc1 (configuration not stated)	inactive

====

# target under test: D(2) dopamine receptor (Homo sapiens)
# experiment: Dopamine D2 receptor (DRD2) small molecule antagonists, cell-based qHTS assay (AID 1963595)
# assay conditions: HEK293-DRD2 cAMP HTRF antagonist mode; series mostly up to 92.4 µM
Records with an inconclusive call do not appear. Active and inactive are the calls of the source. Calls come from the whole dose curve; as a rule, active = well fitted inhibition curve with a large enough effect in the signal ratio in the repeat runs, with a control signal flat; inconclusive = weak or mixed curves, or effect the other way; inactive = flat fitted curve, though single readings scatter; the % refers to the signal ratio.
Outcomes: TRUE = active, FALSE = inactive

compound	target under test	label class
CC(C)NCC(O)c1ccccc1Cl (centres undefined)	D(2) dopamine receptor (Homo sapiens)	FALSE
CC(O)CCl (centres undefined)	D(2) dopamine receptor (Homo sapiens)	FALSE
CCS(=O)(=O)c1cccnc1S(=O)(=O)NC(=O)Nc1nc(OC)cc(OC)n1	D(2) dopamine receptor (Homo sapiens)	FALSE
NC(=O)CI	D(2) dopamine receptor (Homo sapiens)	FALSE
O=C1NCN(c2ccccc2)C12CCN(CCCOc1ccc(F)cc1)CC2	D(2) dopamine receptor (Homo sapiens)	TRUE
CCc1cc2c(s1)-n1c(C)nnc1CN=C2c1ccccc1Cl	D(2) dopamine receptor (Homo sapiens)	FALSE
Cc1ccc(O)cc1C	D(2) dopamine receptor (Homo sapiens)	FALSE
CCCCN(N=O)C(=N)N[N+](=O)[O-]	D(2) dopamine receptor (Homo sapiens)	FALSE
CC(=O)[C@H]1CC[C@H]2[C@@H]3CC[C@H]4C[C@H](O)CC[C@]4(C)[C@H]3C(=O)C[C@]12C	D(2) dopamine receptor (Homo sapiens)	FALSE
CCCCc1ccccc1	D(2) dopamine receptor (Homo sapiens)	FALSE
C=C(Cl)Cl	D(2) dopamine receptor (Homo sapiens)	FALSE
CCNS(=O)(=O)C(F)(F)C(F)(F)C(F)(F)C(F)(F)C(F)(F)C(F)(F)C(F)(F)C(F)(F)F	D(2) dopamine receptor (Homo sapiens)	FALSE
CCC(C)(C)O	D(2) dopamine receptor (Homo sapiens)	FALSE
CC1(C)CN=C(NN=C(/C=C/c2ccc(C(F)(F)F)cc2)/C=C/c2ccc(C(F)(F)F)cc2)NC1	D(2) dopamine receptor (Homo sapiens)	FALSE
O=S(=O)(NS(=O)(=O)C(F)(F)F)C(F)(F)F	D(2) dopamine receptor (Homo sapiens)	FALSE
CN(C)c1ccc(N=Nc2ccccc2)cc1	D(2) dopamine receptor (Homo sapiens)	FALSE
O=c1[nH]c2ccccc2o1	D(2) dopamine receptor (Homo sapiens)	FALSE
CCOP(=S)(NC(C)C)Oc1ccccc1C(=O)OC(C)C (centres undefined)	D(2) dopamine receptor (Homo sapiens)	FALSE
Cc1cc2c3c(c1)C(c1ccccc1)=N[C@@H](NC(=O)c1ccncc1)C(=O)N3CC2	D(2) dopamine receptor (Homo sapiens)	FALSE
COC(=O)c1ccccc1S(=O)(=O)NC(=O)Nc1nc(C)nc(OC)n1	D(2) dopamine receptor (Homo sapiens)	FALSE
O=CC(Br)(Br)Br	D(2) dopamine receptor (Homo sapiens)	FALSE
COc1cc(CC#N)cc(OC)c1OC	D(2) dopamine receptor (Homo sapiens)	FALSE
ClC=C(Cl)Cl	D(2) dopamine receptor (Homo sapiens)	FALSE
O=C(CCl)C(Cl)Cl	D(2) dopamine receptor (Homo sapiens)	FALSE

====

# target under test: 5-hydroxytryptamine receptor 2A (Homo sapiens) (UniProt P28223)
# Sequence (P28223 whole entry, looked up): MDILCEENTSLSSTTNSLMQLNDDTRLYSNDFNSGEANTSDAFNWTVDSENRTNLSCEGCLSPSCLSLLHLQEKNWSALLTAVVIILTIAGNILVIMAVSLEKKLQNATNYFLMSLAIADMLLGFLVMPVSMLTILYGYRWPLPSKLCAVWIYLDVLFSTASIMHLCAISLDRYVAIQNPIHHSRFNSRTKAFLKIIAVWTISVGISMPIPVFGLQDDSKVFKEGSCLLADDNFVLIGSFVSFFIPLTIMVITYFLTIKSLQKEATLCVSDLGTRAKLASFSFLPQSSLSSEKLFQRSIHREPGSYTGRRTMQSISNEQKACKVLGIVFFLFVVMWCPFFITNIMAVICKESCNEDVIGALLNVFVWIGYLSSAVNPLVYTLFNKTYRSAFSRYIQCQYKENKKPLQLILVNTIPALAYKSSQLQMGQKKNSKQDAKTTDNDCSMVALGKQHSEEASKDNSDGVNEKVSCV
# experiment: 5-hydroxytryptamine receptor 2A (HTR2A) small molecule antagonists, cell-based qHTS assay (AID 1963586); note: nearly all actives have a fitted effect of over 45% in size
# assay conditions: HTR2A-CHO cells, DOI-induced calcium flux, fluorescence; series mostly up to 61.5 µM
Inconclusive results are not listed. Activity calls are given as the source filed them. Calls come from the whole dose curve. Square brackets hold non-standard residues; d marks the D form. Peptide text beside a SMILES is read from it. * marks the point of attachment. Sta = CC(C)C[C@H](N)[C@@H](O)CC(=O)O; Isovaleryl = CC(C)CC(=O)*
Outcomes: T for active, F for inactive

compound	label class
CC(C)NCC(O)c1ccc(N)c(C#N)c1 (stereo unspecified)	T
CC(O)CCl (stereo unspecified)	F
CCCCCCCCCCCCCCC(Br)C(=O)O (stereo unspecified)	F
O=c1[nH]c2ccccc2n1C1CCNCC1	F
COP(=O)(OC)O/C(=C\Cl)c1cc(Cl)c(Cl)cc1Cl	F
CON(C)C(=O)Nc1ccc(Br)cc1	F
CCC(=O)c1ccc(Cl)cc1	F
C[N+](C)(C)CC1CO1 (stereo unspecified)	F
CCC1CCC(=O)O1 (stereo unspecified)	F
Oc1ccc(I)cc1	F
C[C@]12CC[C@H]3[C@@H](CCC4=CC(=O)CC[C@@H]43)[C@@H]1CC[C@@H]2OC(=O)CCc1ccccc1	F
CCCCC(CC)COP(=O)(Oc1ccccc1)Oc1ccccc1 (stereo unspecified)	F
CCOc1cc(OP(=S)(OC)OC)nc(CC)n1	F
CC(C)(C#N)C(C)(C)C#N	F
CCCCN(N=O)C(=N)N[N+](=O)[O-]	F
CCC(C)c1cc(C(C)(C)C)cc(-n2nc3ccccc3n2)c1O (stereo unspecified)	F
CC1CN1P(=O)(N1CC1C)N1CC1C (stereo unspecified)	F
OCCCBr	F
Oc1ccc(C(=C(Cl)Cl)c2ccc(O)cc2)cc1	F
CCCN(CCCl)c1c([N+](=O)[O-])cc(C(F)(F)F)cc1[N+](=O)[O-]	F
CC(C)[C@H](C(=O)O[C@H](C#N)c1cccc(Oc2ccccc2)c1)c1ccc(Cl)cc1	F
COC(=O)C(C)N(C(=O)Cc1ccccc1)c1c(C)cccc1C (stereo unspecified)	F
CC(=O)[O-].CC(=O)[O-].[Co+2]	F
SCc1ccco1	F
CC[C@H]1C[C@@H]2C[C@H]3c4[nH]c5ccc(OC)cc5c4CCN(C2)[C@@H]13	T
CC(C)CC(=O)N[C@H](C(=O)N[C@H](C(=O)N[C@@H](CC(C)C)[C@@H](O)CC(=O)N[C@@H](C)C(=O)N[C@@H](CC(C)C)[C@@H](O)CC(=O)O)C(C)C)C(C)C (Isovaleryl-VV[Sta]A[Sta]-OH)	F
CC(C)[C@@H](Nc1ccc(C(F)(F)F)cc1Cl)C(=O)OC(C#N)c1cccc(Oc2ccccc2)c1 (stereo partly specified)	F
N#Cc1c[nH]cc1-c1cccc2c1OC(F)(F)O2	F
O=C1Nc2ccc(Cl)cc2C(c2ccccc2)=NC1O (stereo unspecified)	F
CCS(=O)(=O)c1cccnc1S(=O)(=O)NC(=O)Nc1nc(OC)cc(OC)n1	F
C=COC(C)=O	F
CC(Oc1cccc(Cl)c1)C(=O)O (stereo unspecified)	F
O=C(O)[C@H](O)[C@@H](O)C(=O)O	F
O=C1c2ccccc2C(=O)C1C(=O)C(c1ccccc1)c1ccc(Cl)cc1 (stereo unspecified)	T
CC(O)C#N (stereo unspecified)	F
CC(=O)C(Cl)C(=O)N(C)C (stereo unspecified)	F
[Cl-].[Cl-].[Sn+2]	F
Nc1nc(N)nc(N)n1	F
C[C@@H](N)[C@@H](O)c1ccccc1	F
CC1N=C(N)OC1c1ccccc1 (stereo unspecified)	F
C=CC(=O)[O][Sn]([CH2]CCC)([CH2]CCC)[CH2]CCC	T
O=C(Nc1ccccc1)c1ccccc1I	F
C/C(=C\c1ccccc1)[N+](=O)[O-]	F
CC(C)(C)C(=O)C(Oc1ccc(Cl)cc1)n1cncn1 (stereo unspecified)	F
CCC1COC(Cn2cncn2)(c2ccc(Cl)cc2Cl)O1 (stereo unspecified)	F
COP(=S)(OC)Oc1cc(Cl)c(I)cc1Cl	F
II	F
ClC(Cl)C(Cl)Cl	F
O=[N+]([O-])c1ccc(Oc2ccc(C(F)(F)F)cc2[N+](=O)[O-])cc1	F
O.O.O.O.O.O.O=S(=O)([O-])[O-].[Ni+2]	F
CS/C(C)=N/OC(=O)N(C)SN(C)C(=O)O/N=C(\C)SC	F
